Attribution: patent US20230021388A1

- measured-target: T1, recombinant human ROR1 extracellular domain (human, UniProt Q01973 30-406)
- T1 construct: biotinylated for the filter lifts; also called huROR1-ECD; human ROR1-ECD
- T1 sequence (Q01973 30-406 limits assumed): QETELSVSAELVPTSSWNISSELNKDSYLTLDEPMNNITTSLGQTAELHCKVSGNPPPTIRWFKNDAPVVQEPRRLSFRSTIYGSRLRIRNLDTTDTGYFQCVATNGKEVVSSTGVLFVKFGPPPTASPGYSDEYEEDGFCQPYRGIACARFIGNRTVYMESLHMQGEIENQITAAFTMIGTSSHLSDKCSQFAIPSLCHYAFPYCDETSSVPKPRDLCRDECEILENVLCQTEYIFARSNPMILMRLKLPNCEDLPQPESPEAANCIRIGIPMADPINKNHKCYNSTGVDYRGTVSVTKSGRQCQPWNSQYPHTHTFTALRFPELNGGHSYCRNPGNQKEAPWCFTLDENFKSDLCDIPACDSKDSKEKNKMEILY
- test-protocol: ELISA, soluble Fab on coated huROR1-ECD
measurement-label: Kd (nM)
Number only, in nM; omit the unit.

binder: Ab1 Fab variant L1 K29E (Fab, V domains shown, Fab) VH: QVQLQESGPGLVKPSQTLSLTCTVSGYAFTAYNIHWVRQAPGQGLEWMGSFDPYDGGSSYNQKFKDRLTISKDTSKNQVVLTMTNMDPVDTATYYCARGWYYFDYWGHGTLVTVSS VL: DIVMTQTPLSLPVTPGEPASISCRASESISKYLAWYQQKPGQAPRLLIYSGSTLQSGIPPRFSGSGYGTDFTLTINNIESEDAAYYFCQQHDESPYTFGEGTKVEIK
quantitative-result: 1.2

Please examine the following record next.
In plain terms, Ab1 Fab variant L2 T69R (Fab, V domains shown, Fab; also called SGSRLQS) VH: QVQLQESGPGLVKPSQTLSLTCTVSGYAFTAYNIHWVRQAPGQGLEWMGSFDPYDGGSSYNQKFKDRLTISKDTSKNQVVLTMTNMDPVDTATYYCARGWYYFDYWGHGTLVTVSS VL: DIVMTQTPLSLPVTPGEPASISCRASKSISKYLAWYQQKPGQAPRLLIYSGSRLQSGIPPRFSGSGYGTDFTLTINNIESEDAAYYFCQQHDESPYTFGEGTKVEIK has a documented Kd of 2.1
